Below is a list of entries, each paired with its recorded apparent KD of K4 kissing-loop reporter value.
test system: K4 kissing-loop RNA reporter; experiment: apparent KD of K4 kissing-loop reporter; higher = weaker reporter binding; settings: Eterna round: R107; input ligand: arginine 13.2 mM;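 also: bound reporter read as fluorescence of individual clusters on recovered sequencing chips by microscopy, with normalized cluster intensities fitted with a binding model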
quantity-name: apparent KD of K4 kissing-loop reporter (nM)

UGAUACCAGACGGCCGCCACUCCUGCAGUCAAAGACUGCUAAAGGAAAUUCGUCCAGUGAUGUUGGAGGACCGGGUCUGGUAUCU [TrypBX 13 #SwitchBubble #Palindromic #StaticStem]	753
GGCAGUGAUGUUGCCUAAGCAAUGCAUGCGGAGGAUAUUCGUUUGGGAAGAAGGCCGCAGCGUUCUCUCGAGUGAUGUUCGAGUA [Same State FMN A GF 20]	141
CCGAAGAACCAGUGAUGUUGGUUGACUAGACAGGAUAUGAGCAACAUCAGAAGGGUCUGGCUUCGGGAGUGGGUCACGCUGACCU [Iserreanor]	282
